# test: SOD activity, xanthine/xanthine oxidase with cytochrome C as acceptor (Example 2)
# Type: biochemical
# experimental_parameters: relative to C7 (C7 = 100)

>  <compound>
C1=NCCN=Cc2ccccc2[O][Zn][O]c2ccccc21

>  <SOD>
0

$$$$
>  <compound>
CC(=O)[O][Mn]1[O]c2ccc(O)cc2C=NCCN=Cc2cc(O)ccc2[O]1

>  <SOD>
65

$$$$
>  <compound>
CC(=O)[O][Mn]1[O]c2ccccc2C(C)=NCCN=C(C)c2ccccc2[O]1

>  <SOD>
38

$$$$
>  <compound>
COc1cccc2c1[O][Mn]([Cl])[O]c1c(cccc1OC)C=NC1CCCCC1N=C2 (centres unmarked)

>  <SOD>
88

$$$$
>  <compound>
COc1cc(OC)c2c(c1)[O][Mn]([O]C(C)=O)[O]c1cc(OC)cc(OC)c1C=NCCN=C2

>  <SOD>
27

$$$$
>  <compound>
[Cl][Fe]1[O]c2ccccc2C=NCCN=Cc2ccccc2[O]1

>  <SOD>
33

$$$$
>  <compound>
COc1cccc2c1[O][Mn]([Cl])[O]c1c(cccc1OC)C=NCCN=C2

>  <SOD>
96

$$$$
>  <compound>
CC(=O)[O][Mn]1[O]c2ccccc2C=NCCN=Cc2ccccc2[O]1

>  <SOD>
101

$$$$
